Measured values drawn from patent US20230123178A1 for this set.

- target.entity: full-length human PD1 on cells (human, UniProt Q15116 25-288)
- Sequence (Q15116 25-288 limits assumed): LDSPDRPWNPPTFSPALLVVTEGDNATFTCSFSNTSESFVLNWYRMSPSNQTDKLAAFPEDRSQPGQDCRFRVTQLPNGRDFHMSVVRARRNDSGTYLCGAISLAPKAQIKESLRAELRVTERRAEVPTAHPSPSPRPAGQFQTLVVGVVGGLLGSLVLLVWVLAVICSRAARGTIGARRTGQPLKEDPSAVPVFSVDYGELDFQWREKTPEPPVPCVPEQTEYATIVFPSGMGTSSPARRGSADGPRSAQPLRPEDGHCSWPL
- measurement.protocol: cell-based or functional assay
result.type: Percentage of IFN gamma secretion in MLR against rec hu IL-2 (=100%), dilution 1:1200
Note to self: number, then unit, no commentary.

Below, each entry is followed by its recorded Percentage of IFN gamma secretion in MLR against rec hu IL-2 (=100%), dilution 1:1200 result.
binder	test.result
PD1-0073 (antibody, V domains shown) VH: EVKLVESGGGLVKPGGSLKLSCAASGFTFSNYGMSWIRQTPEKGLEWVATISGGGRDTYYPDSVKGRFTISRDNVKNNLYLQMSSLRSEDTAFYYCASYYYGIDYWGQGTSVTVSS VL: DIVMTQPHKFMSTSVGDRVRITCKASQDVTTAVAWYQQKPGQSPKLLIYWASTRHTGVPDRFTGSGSGTEFTLTISSVQAEDLALYYCQQHYSIPWTFGGGTKLEIK	38%
PD1-0078 (antibody, V domains shown) VH: QVQLQQPGAELVKPGASVKMSCKASGYTFTSTWMHWVKQRPGQGLEWIGAIDPSDSYTTYNQKFKGKATLTVDTSSTTAYMQLSSLTSEDSAVYYCTRSPFDYWGQGTTLTVSS VL: DIVMTQSHKFMSTSVGDRVSITCKASQDVSTAVAWYQQKPGQSPKLLIYSASYRYTGVPDRFTGSGSGTDFTFAISSVQAEDLAVYYCQQHYSHPFTFGSGTKLEIK	21%

Now turn to the next binder.
Request: Request the reported Percentage of IFN gamma secretion in MLR against rec hu IL-2 (=100%), dilution 1:1200 associated with PD1-0050 (antibody, V domains shown) VH: DVQLQESGPGLVKPSQSLSLTCTVTGYSITSDYAWNWIRQFPGNKLEWMGYITYTGRTSYNPSLKSRISITRDTSKNQFFLQLNSVTTEDTATYYCAREMDYYGSTLDYWGQGTTLTVSS VL: KIVLTQSPASLAVSLRQRATISCRASESVDRYGNSFIHWYQQKPGQPPKVLIYRASNLESGFPARFSGSGSRTDFTLTIDPVEADDAATYYCQQNNEDPYTFGSGTKLEIK
Result: 33%
